- experiment description: self-splicing fitness, log relative to wild type (ln ratio); higher = more splicing; Tetrahymena group I intron in knt gene, E. coli kanamycin selection, DiMSum; sequences stand for … in CUCUCU…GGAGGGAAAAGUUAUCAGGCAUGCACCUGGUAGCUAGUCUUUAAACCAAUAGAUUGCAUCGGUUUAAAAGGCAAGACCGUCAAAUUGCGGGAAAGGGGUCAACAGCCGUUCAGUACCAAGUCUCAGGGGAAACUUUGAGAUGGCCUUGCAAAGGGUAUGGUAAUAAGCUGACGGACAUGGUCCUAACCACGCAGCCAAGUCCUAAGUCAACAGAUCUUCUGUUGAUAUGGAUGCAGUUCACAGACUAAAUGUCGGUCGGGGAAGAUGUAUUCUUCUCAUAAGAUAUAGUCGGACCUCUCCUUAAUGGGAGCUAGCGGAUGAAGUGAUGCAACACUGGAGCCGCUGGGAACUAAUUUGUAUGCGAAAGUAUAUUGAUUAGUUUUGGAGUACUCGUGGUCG;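 note: selection with 25 µg/mL kanamycin versus none on LB agar overnight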
- run conditions: 37 °C
property label: self-splicing fitness (ln)
Note: the reply should be a number with no unit written.

residue sequence	test value
GUAAAGCAAUAUUACGGUAU	0.118
CACGAGCAAUAUUACGUAGG	-1.83
AACCAGCAAUAUUACGUCUG	-2.54
AACGAGCAAUAUUACGGGCC	-3.18
UUCCAGCAAUAUUACGGAAG	-2.16
AGACAGCAAUAUUACGCCUA	-0.402

Ask | self-splicing fitness (ln) lookup needed for CGUAAGCAAUAUUACGUCAA , thanks.
Reply | -1.56

Ask | Bench note: what self-splicing fitness (ln) did CAAUAGCAAUAUUACGCGUC show?
Reply | -3

Ask | Any idea what its self-splicing fitness (ln) is? The sequence is GUCCAGCAAUAUUACGAGAA
Reply | -0.763

Ask | Dear colleague, I am looking for the recorded self-splicing fitness (ln) of the following sequence: AGUUAGCAAUAUUACGGCGG
Reply | -0.514

Ask | Can you look up the measured self-splicing fitness (ln) of GUAAAGCAAUAUUACGUUAC for me?
Reply | -1.91

Ask | // query self-splicing fitness (ln) value for entry GAGCAGCAAUAUUACGCGAG
Reply | -0.876

Ask | // returns reported self-splicing fitness (ln) for input AUUCAGCAAUAUUACGAUGG
Reply | -0.688

Ask | Which value of self-splicing fitness (ln) has been reported for ACCGAGCAAUAUUACGCGCC in the records?
Reply | -3.32

Ask | Any idea what its self-splicing fitness (ln) is? The sequence is CGUUAGCAAUAUUACGUUGA
Reply | -2.25

Ask | Given the sequence CGGCAGCAAUAUUACGGCUG , what is its reported self-splicing fitness (ln)?
Reply | -2.23

Ask | Given the sequence UUCAAGCAAUAUUACGUGAA , what is its reported self-splicing fitness (ln)?
Reply | -0.479

Ask | Data request, read-out self-splicing fitness (ln), for CAAGAGCAAUAUUACGACCG
Reply | -0.89

Ask | Please give the measured self-splicing fitness (ln) for this sequence: UCGGAGCAAUAUUACGGGCC
Reply | -3.6

Ask | Quick check: self-splicing fitness (ln) of CCCGAGCAAUAUUACGACGG ?
Reply | -3.49

* * *

- experiment description: self-splicing fitness, log relative to wild type (ln ratio); higher = more splicing; Tetrahymena group I intron in knt gene, E. coli kanamycin selection, DiMSum; sequences stand for … in CUCUCU…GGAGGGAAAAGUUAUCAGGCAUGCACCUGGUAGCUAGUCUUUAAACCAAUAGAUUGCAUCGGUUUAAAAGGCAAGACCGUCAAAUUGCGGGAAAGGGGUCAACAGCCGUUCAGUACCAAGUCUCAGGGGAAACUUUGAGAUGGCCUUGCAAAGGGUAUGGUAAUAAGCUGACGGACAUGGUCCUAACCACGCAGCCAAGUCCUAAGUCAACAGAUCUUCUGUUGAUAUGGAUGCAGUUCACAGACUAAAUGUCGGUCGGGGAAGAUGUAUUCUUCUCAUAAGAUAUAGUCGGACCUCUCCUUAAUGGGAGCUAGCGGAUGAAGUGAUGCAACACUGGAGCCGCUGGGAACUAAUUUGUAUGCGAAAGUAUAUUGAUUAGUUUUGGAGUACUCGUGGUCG
- run conditions: 37 °C
A collection of sequences and their measured self-splicing fitness (ln)
Lab note: record the figure alone, no unit after it.

Use the examples below as a reference point.
residue sequence	test value
AGCUAGCAAUAUUACGCGCA	0.0846
GUGUAGCAAUAUUACGUAGG	-1.5
GCGUAGCAAUAUUACGGCUA	-0.79
GGAAAGCAAUAUUACGAUCA	-0.282
UGCCAGCAAUAUUACGCCGA	-1.07
UAACAGCAAUAUUACGCGUU	-3.01
AUAAAGCAAUAUUACGAUUC	-0.228
ACUCAGCAAUAUUACGUUAC	-2.31
UCGGAGCAAUAUUACGUAUU	-2.34
GACAAGCAAUAUUACGACUG	-0.0494

Ask | Record request: self-splicing fitness (ln) value, item CGUUAGCAAUAUUACGUAAA
Reply | -1.88

Ask | Look up self-splicing fitness (ln): GUAGAGCAAUAUUACGAAGA
Reply | -2.22

Ask | Using the record for UUGAAGCAAUAUUACGUUUC , report its self-splicing fitness (ln).
Reply | -3.3

Ask | # self-splicing fitness (ln) lookup, item UCUAAGCAAUAUUACGUGGA
Reply | -3.51

* * *

Entries and their self-splicing fitness (ln) values follow.
- experiment description: self-splicing fitness, log relative to wild type (ln ratio); higher = more splicing; Tetrahymena group I intron in knt gene, E. coli kanamycin selection, DiMSum; sequences stand for … in CUCUCU…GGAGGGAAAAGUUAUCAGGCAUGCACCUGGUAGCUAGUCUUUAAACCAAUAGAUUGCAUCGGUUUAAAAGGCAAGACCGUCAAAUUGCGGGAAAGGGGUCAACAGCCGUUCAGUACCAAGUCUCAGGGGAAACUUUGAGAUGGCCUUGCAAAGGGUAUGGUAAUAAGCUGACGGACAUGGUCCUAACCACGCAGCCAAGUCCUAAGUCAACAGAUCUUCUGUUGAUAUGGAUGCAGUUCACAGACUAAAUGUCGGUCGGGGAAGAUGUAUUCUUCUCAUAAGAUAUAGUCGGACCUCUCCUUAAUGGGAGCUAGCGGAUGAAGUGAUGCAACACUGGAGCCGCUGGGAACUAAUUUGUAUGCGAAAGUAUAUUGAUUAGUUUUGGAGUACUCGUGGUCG
- run conditions: 30 °C
Give only the figure.

Ask | Endpoint output: self-splicing fitness (ln) of CCUAAGCAAUAUUACGACAA . Value?
Reply | -3.28

Ask | Field request: self-splicing fitness (ln) | item: UCCGAGCAAUAUUACGCGUU
Reply | -3.39

Ask | Looking for the measured self-splicing fitness (ln) of CAAAAGCAAUAUUACGCUAG , can you help?
Reply | -3.12

Ask | Entry UUCCAGCAAUAUUACGGUGC : reported self-splicing fitness (ln) = ?
Reply | -1.9

Ask | self-splicing fitness (ln) for CCGAAGCAAUAUUACGCCCA ?
Reply | -2.41

* * *

- experiment description: self-splicing fitness, log relative to wild type (ln ratio); higher = more splicing; Tetrahymena group I intron in knt gene, E. coli kanamycin selection, DiMSum; sequences stand for … in CUCUCU…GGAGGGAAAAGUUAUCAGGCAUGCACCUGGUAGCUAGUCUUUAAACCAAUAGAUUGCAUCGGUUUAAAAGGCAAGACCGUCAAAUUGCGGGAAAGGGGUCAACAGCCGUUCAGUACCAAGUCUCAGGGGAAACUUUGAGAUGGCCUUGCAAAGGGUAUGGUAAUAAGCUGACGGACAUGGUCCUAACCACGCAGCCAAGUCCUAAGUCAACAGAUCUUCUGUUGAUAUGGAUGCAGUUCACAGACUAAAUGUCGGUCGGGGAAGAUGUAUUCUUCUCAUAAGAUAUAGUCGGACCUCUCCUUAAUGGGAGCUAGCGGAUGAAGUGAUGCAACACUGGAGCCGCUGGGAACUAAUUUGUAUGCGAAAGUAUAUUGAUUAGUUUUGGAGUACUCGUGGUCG
- run conditions: 37 °C
Kindly note that classification relies on self-splicing fitness (ln) with these boundaries: bin A = under -2, bin B = from -2 up to -1, bin C = -1 and over

Worked set:
residue sequence	label value
CCUUAGCAAUAUUACGUUUA	bin A
GCGUAGCAAUAUUACGAACG	bin B
AUUAAGCAAUAUUACGUCCC	bin C
CAAAAGCAAUAUUACGGUAA	bin B
CUCUAGCAAUAUUACGCCGG	bin B

Ask | Class? Entry: CCUGAGCAAUAUUACGAUAU
Reply | bin A

Ask | Using the reported self-splicing fitness (ln), which band applies to UCACAGCAAUAUUACGAAAU ?
Reply | bin C

Ask | State the class of the sequence shown: AGCUAGCAAUAUUACGCUAA
Reply | bin B

Ask | Bin this entry: AGCCAGCAAUAUUACGAGUG
Reply | bin A

Ask | Assign a category based on measured self-splicing fitness (ln) for UAAAAGCAAUAUUACGCAAU and give only the class name.
Reply | bin B

Ask | For the record CUCGAGCAAUAUUACGAGUC , report the class its self-splicing fitness (ln) corresponds to.
Reply | bin A

Ask | Form: Item = CAUUAGCAAUAUUACGUUGA ; Class = ?
Reply | bin A

Ask | # classify by self-splicing fitness (ln) band: UGCAAGCAAUAUUACGUUUU
Reply | bin A

Ask | State the class of the sequence shown: UACCAGCAAUAUUACGUCGU
Reply | bin A

Ask | Form: Item = GGAUAGCAAUAUUACGAGAG ; Class = ?
Reply | bin A

Ask | State the class of the sequence shown: UCAAAGCAAUAUUACGGAGG
Reply | bin B

Ask | Consider GUCGAGCAAUAUUACGCCGU . To which self-splicing fitness (ln) class does it belong?
Reply | bin C

Ask | Into which bin does this sequence go? AAGCAGCAAUAUUACGGAGA
Reply | bin B
